Data origin: patent US20230099344A1

Molecular target: IRAK-4 (Homo sapiens)
Sequence (Q9NWZ3 whole entry): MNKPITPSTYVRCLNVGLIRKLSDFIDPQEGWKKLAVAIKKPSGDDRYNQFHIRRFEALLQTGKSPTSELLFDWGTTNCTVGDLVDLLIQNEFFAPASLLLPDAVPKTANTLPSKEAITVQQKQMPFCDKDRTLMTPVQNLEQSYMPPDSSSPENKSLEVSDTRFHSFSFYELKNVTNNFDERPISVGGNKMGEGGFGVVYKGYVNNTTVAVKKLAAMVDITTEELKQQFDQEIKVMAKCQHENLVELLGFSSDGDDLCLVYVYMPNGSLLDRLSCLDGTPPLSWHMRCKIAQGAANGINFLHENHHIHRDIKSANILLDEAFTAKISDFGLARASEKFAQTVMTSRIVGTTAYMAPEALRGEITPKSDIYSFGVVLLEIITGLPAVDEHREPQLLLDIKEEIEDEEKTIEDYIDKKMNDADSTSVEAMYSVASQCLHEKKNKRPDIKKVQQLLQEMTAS
Assay: IRAK-4 ELISA, PBMC degradation
Format: cell-based
Design: endogenous in cells; host or cells: PBMC
Settings: treated overnight
Below is a list of entries, each paired with its recorded Dmax value.

>  <compound>
CC(C)Oc1cc2nn([C@H]3CC[C@H](N(C)C4CN(c5ccc6c(c5)C(=O)N(C5CCC(=O)NC5=O)C6=O)C4)CC3)cc2cc1NC(=O)c1cnn2cccnc12 (stereo partly shown) [Example 318]

>  <Dmax>
≥ 90%

$$$$
>  <compound>
O=C1CCC(N2C(=O)c3ccc(N4CC(N5CCC(N6Cc7cc(NC(=O)c8cnn9cccnc89)c(N8CCOCC8)nc7C6=O)CC5)C4)cc3C2=O)C(=O)N1 (stereo not shown) [Example 407]

>  <Dmax>
≥ 90%

$$$$
>  <compound>
COc1cc2nn(C3CCN(CC4CN(c5cccc6c5n(C)c(=O)n6C5CCC(=O)NC5=O)C4)CC3)cc2cc1NC(=O)c1cnn2cccnc12 (stereo not shown) [Example 379]

>  <Dmax>
≥ 90%

$$$$
>  <compound>
CC(C)Oc1cc2c(cc1NC(=O)c1cnn3cccnc13)CN(C1CCN(C(=O)C3CN(c4ccc5c(c4)C(=O)N(C4CCC(=O)NC4=O)C5=O)C3)CC1)C2=O (stereo not shown) [Example 71]

>  <Dmax>
≥ 90%

$$$$
>  <compound>
CN(C1CCC(N2Cc3cc(NC(=O)c4cnn5cccnc45)c(OC4CC4)cc3C2=O)CC1)C1CN(c2ccc3c(c2)C(=O)N(C2CCC(=O)NC2=O)C3=O)C1 (stereo not shown) [Example 341]

>  <Dmax>
≥ 90%

$$$$

Then this compound:
Task item: What value of Dmax has been recorded for this entry: CC(C)Oc1cc2c(cc1NC(=O)c1cnn3cccnc13)CN(C1CCN(CC3CCN(c4ccc5c(c4F)CN(C4CCC(=O)NC4=O)C5=O)CC3)CC1)C2=O (stereo not shown) [Example 41]
Reply: 80 to 90%

====

Molecular target: UniProtKB Q9NWZ3
Assay: IRAK-4 ELISA, PBMC degradation
Assay type: cell-based
Set-up: endogenous in cells; host or cells: PBMC
Details: treated overnight
Documented Dmax across a set of molecules

Below: 3 molecules and their reported Dmax.
>  <molecule>
O=C1CCC(N2C(=O)c3cc(F)c(N4CC(F)(CN5CCC(n6cc7cc(NC(=O)c8cnn9cccnc89)c(OCC8CC8)cc7n6)CC5)C4)cc3C2=O)C(=O)N1 (centres unmarked)

>  <target_entity>
UniProtKB Q9NWZ3

>  <Dmax>
80 to 90%

$$$$
>  <molecule>
COc1cc2nn(C3CCN(CC4CCN(c5ccc6c(c5)CN(C5CCC(=O)NC5=O)C6=O)CC4)CC3)cc2cc1NC(=O)c1cnn2cccnc12 (centres unmarked)

>  <target_entity>
UniProtKB Q9NWZ3

>  <Dmax>
80 to 90%

$$$$
>  <molecule>
CC(C)Oc1cc2nn([C@H]3CC[C@H](N(C)CC4(F)CN(c5ccc6c(c5)C(=O)N(C5CCC(=O)NC5=O)C6=O)C4)CC3)cc2cc1NC(=O)c1cnn2cccnc12 (some centres unmarked)

>  <target_entity>
UniProtKB Q9NWZ3

>  <Dmax>
80 to 90%

$$$$

Task item: What value of Dmax has been recorded for this entry: CC(C)Oc1cc2c(cc1NC(=O)c1cnn3cccnc13)CN(C1CCC(N(CC(F)F)C3CN(c4ccc5c(c4)C(=O)N(C4CCC(=O)NC4=O)C5=O)C3)CC1)C2=O (centres unmarked)
Reply: ≥ 90%

Task item: Entry O=C1CCC(N2C(=O)c3ccc(N4CC(F)(CN5CCC(N6Cc7cc(NC(=O)c8cnn9cccnc89)c(OCC8CC8)cc7C6=O)CC5)C4)cc3C2=O)C(=O)N1 (centres unmarked) has what Dmax?
Reply: 80 to 90%

====

Reported Emax values for the following compounds.
Test system: IL6
Experiment: IL-1β stimulated IL6 inhibition assay in PBMC
Assay type: cell-based
Details: PBMC; human PBMCs, IL-1β stimulation, compound overnight, IL6 by MSD after 24 hrs; read-out: IL1β stim IL6 inhibition Ymax

Known results for compounds:
>  <compound>
COc1cc2nn(C3CCN(CCc4ccc5c(c4)CN(C4CCC(=O)NC4=O)C5=O)CC3)cc2cc1NC(=O)c1cnn2cccnc12 (stereo not shown)

>  <target_entity>
IL6

>  <Emax>
≥ 90%

$$$$
>  <compound>
O=C1CCC(N2C(=O)c3ccc(N4CCC(CN5CCC(N6Cc7cc(NC(=O)c8cnn9cccnc89)c(OCC8CC8)cc7C6=O)CC5)CC4)cc3C2=O)C(=O)N1 (stereo not shown)

>  <target_entity>
IL6

>  <Emax>
≥ 90%

$$$$
>  <compound>
O=C1CCC(N2C(=O)c3ccc(N4CC(F)(CN5CCC(n6cc7cc(NC(=O)c8cnn9cccnc89)c(OCC8CC8)cc7n6)CC5)C4)cc3C2=O)C(=O)N1 (stereo not shown)

>  <target_entity>
IL6

>  <Emax>
80 to 90%

$$$$
>  <compound>
COc1cc2nn([C@H]3CC[C@H](N(C)C4CCN(c5ccc6c(c5)C(=O)N(C5CCC(=O)NC5=O)C6=O)CC4)CC3)cc2cc1NC(=O)c1cnn2cccnc12 (stereo partly shown)

>  <target_entity>
IL6

>  <Emax>
≥ 90%

$$$$

Task item: // query Emax value for entry COc1cc2nn(C3CCN(CC4(F)CN(c5ccc6c(c5)CN(C5CCC(=O)NC5=O)C6=O)C4)CC3)cc2cc1NC(=O)c1cnn2cccnc12 (stereo not shown)
Reply: ≥ 90%

Task item: Entry O=C1CCC(NC(=O)c2ccc(N3CCC(CN4CCC(n5cc6cc(NC(=O)c7cnn8cccnc78)c(OCC7CC7)cc6n5)CC4)CC3)cc2F)C(=O)N1 (stereo not shown) has what Emax?
Reply: ≥ 90%

Task item: // query Emax value for entry O=C1CCC(N2C(=O)c3ccc(N4CC(CN5CCC([C@H](F)Cn6cc7cc(NC(=O)c8cnn9cccnc89)c(OCC8CC8)cc7n6)CC5)C4)cc3C2=O)C(=O)N1 (stereo partly shown)
Reply: ≥ 90%

Task item: Which Emax is listed for CC(C)Oc1cc2c(cc1NC(=O)c1cnn3cccnc13)CN([C@H]1CC[C@@H](N3CC4(CN(c5ccc6c(c5)C(=O)N(C5CCC(=O)NC5=O)C6=O)C4)C3)CC1)C2=O (stereo partly shown) ?
Reply: ≥ 90%

Task item: Quick check: Emax of COc1c(N2CC(CN3CCC(n4cc5cc(NC(=O)c6cnn7cccnc67)c(OCC6CC6)cc5n4)CC3)C2)ccc2c1C(=O)N(C1CCC(=O)NC1=O)C2=O (stereo not shown) ?
Reply: 80 to 90%

Task item: // Emax lookup, key: CC(C)Oc1cc2c(cc1NC(=O)c1cnn3cccnc13)CN(C1CCN(C3CCN(c4ccc5c(c4)CN(C4CCC(=O)NC4=O)C5=O)CC3)CC1)C2=O (stereo not shown)
Reply: ≥ 90%

Task item: Item O=C1CCC(N2C(=O)c3ccc(N4CCC(CN5CCC(N6Cc7cc(NC(=O)c8cnn9cccnc89)c(N8CCC(N9CCC9)CC8)cc7C6=O)CC5)CC4)cc3C2=O)C(=O)N1 (stereo not shown) has what recorded Emax?
Reply: ≥ 90%

Task item: Entry under review: COc1cc2nn([C@H]3CC[C@H](OC4CN(c5ccc6c(c5)C(=O)N(C5CCC(=O)NC5=O)C6=O)C4)CC3)cc2cc1NC(=O)c1cnn2cccnc12 (stereo partly shown) . Reported Emax?
Reply: 80 to 90%

Task item: Using the record for CC(C)Oc1cc2c(cc1NC(=O)c1cnn3cccnc13)CN(C1CCN(CC3CCN(c4cc5c(cc4F)C(=O)N(C4CCC(=O)NC4=O)C5=O)CC3)CC1)C2=O (stereo not shown) , report its Emax.
Reply: ≥ 90%

Task item: Quick one: Emax for O=C1CCC(N2C(=O)c3ccc(N4CCN(CCN5CCC(n6cc7cc(NC(=O)c8cnn9cccnc89)c(OCC8CC8)cc7n6)CC5)CC4)cc3C2=O)C(=O)N1 (stereo not shown) ?
Reply: ≥ 90%

Task item: Request the reported Emax associated with COc1cc2nn(C3CCN(CC4CN(c5cccc6c5n(C)c(=O)n6C5CCC(=O)NC5=O)C4)CC3)cc2cc1NC(=O)c1cnn2cccnc12 (stereo not shown)
Reply: 80 to 90%

Task item: Can you share its Emax? I mean this compound: CC(C)Oc1cc2c(cc1NC(=O)c1cnn3cccnc13)CN(C1CCN(CC3CN(c4ccc5c(c4)C(=O)N(C4CCC(=O)NC4=O)C5=O)C3)CC1)C2=O (stereo not shown)
Reply: 80 to 90%

Task item: Which measured Emax value corresponds to COc1cc2nn(C3CCN(CC4(F)CN(c5ccc6c(c5)C(=O)N(C5CCC(=O)NC5=O)C6=O)C4)CC3)cc2cc1NC(=O)c1cnn2cccnc12 (stereo not shown) ?
Reply: ≥ 90%

Task item: What value of Emax has been recorded for this entry: CC(C)Oc1nc2c(cc1NC(=O)c1cnn3cccnc13)CN(C1CCN(CCc3ccc4c(c3)C(=O)N(C3CCC(=O)NC3=O)C4=O)CC1)C2=O (stereo not shown)
Reply: ≥ 90%

Task item: Fill in the blank: the reported Emax of COc1cc2nn(C3CCN(CC4CCN(c5ccc6c(c5)CN(C5CCC(=O)NC5=O)C6=O)CC4)CC3)cc2cc1NC(=O)c1cnn2cccnc12 (stereo not shown) is ____.
Reply: ≥ 90%

Task item: Any idea what Emax was measured for COc1cc2nn([C@H]3CC[C@H](N(C)C4CN(c5ccc6c(c5)CN(C5CCC(=O)NC5=O)C6=O)C4)CC3)cc2cc1NC(=O)c1cnn2cccnc12 (stereo partly shown) ?
Reply: ≥ 90%

Task item: # query: Emax of entry COc1cc2nn([C@H]3CC[C@H](N(C)CC#Cc4ccc5c(c4)C(=O)N(C4CCC(=O)NC4=O)C5=O)CC3)cc2cc1NC(=O)c1cnn2cccnc12 (stereo partly shown)
Reply: ≥ 90%

Task item: Requested read-out: Emax. Entry: O=C1CCC(N2Cc3cc(N4CC(CN5CCC(n6cc7cc(NC(=O)c8cnn9cccnc89)c(C8CC8)cc7n6)CC5)C4)ccc3C2=O)C(=O)N1 (stereo not shown)
Reply: ≥ 90%
